For each entry below, report its Kd value.
- System: HIV-1 Nef SF2 (Human immunodeficiency virus type 1 group M subtype B, UniProt P03407)
- Construct: made in house
- Protocol Notes: biochemical
- Type: binding
- Condition Description: two-step induced-fit model, Reichert SPR, read-out: Reichert SPR Nef SF2 (M) two-step fitting
Give bare numbers, in M.

Below: 5 compounds and their reported Kd.
{"columns": ["Smiles Representation", "Kd / M"],
 "data": [
  ["Oc1c(CCc2ccncc2)c(-c2ccc(C(F)(F)F)cc2)nn1-c1nc2ccccc2[nH]1", "1.43e-10"],
  ["CN(C)S(=O)(=O)N1CCC(c2nn(-c3nc4ccccc4[nH]3)c(O)c2CCc2ccc(F)cc2)CC1", "6.84e-06"],
  ["CC(C)(C)OC(=O)N1CCC(CCc2c(-c3ccc(S(C)(=O)=O)cc3)nn(-c3nc4ccccc4[nH]3)c2O)CC1", "5.01e-07"],
  ["Oc1c(CCc2ccc(F)cc2)c(-c2ccc(C(F)(F)F)cc2)nn1-c1cc(C(F)(F)F)n[nH]1", "4.55e-05"],
  ["Oc1c(CCc2ccc(F)cc2)c(C2CC2)nn1-c1nc2cc(Cl)ccc2[nH]1", "4.9e-07"]
]}

# batch: return Kd for each of the 2 compounds below
1. CC(C)OC(=O)N1CCC(c2nn(-c3nc4ccccc4[nH]3)c(O)c2CCC2CCOCC2)CC1
2. CS(=O)(=O)c1ccc(-c2nn(-c3nc4ccccc4[nH]3)c(O)c2CCc2ccc(F)cc2)cc1

Result:
1.28e-07
2.07e-11

---

- Tested on: uninfected PBMCs
- Type: cell-based
- Condition Description: human
Observed Property: Toxicity in HIV Replication PBMC (Toxic @ concentration)

{"columns": ["Smiles Representation", "Result"],
 "data": [
  ["CS(=O)(=O)c1ccc(-c2nn(-c3nc4ccccc4[nH]3)c(O)c2CCc2ccc(F)cc2)cc1", "Toxic @ 1 μM"],
  ["CC(C)COC(=O)N1CCC(c2nn(-c3nc4ccccc4[nH]3)c(O)c2CCc2ccc(F)cc2)CC1", "Toxic @ 10 nM"],
  ["Oc1c(CCc2ccncc2)c(-c2ccc(C(F)(F)F)cc2)nn1-c1nc2ccccc2[nH]1", "Toxic @ 1 μM"],
  ["O=C(OCc1ccccc1)N1CCC(c2nn(-c3nc4cccc(Cl)c4[nH]3)c(O)c2CCc2ccc(F)cc2)CC1", "Toxic @ 1 μM"],
  ["CC(C)(C)OC(=O)N1CCC(CCc2c(-c3ccc(S(C)(=O)=O)cc3)nn(-c3nc4cc(Cl)ccc4[nH]3)c2O)CC1", "Toxic @ 1 μM"]
]}

# batch: return Toxicity in HIV Replication PBMC (Toxic @ concentration) for each of the 2 compounds below
1. CC(C)OC(=O)N1CCC(c2nn(-c3nc4cc(Cl)ccc4[nH]3)c(O)c2CCC2CCOCC2)CC1
2. CC(C)(C)OC(=O)N1CCC(CCc2c(-c3ccc(S(C)(=O)=O)cc3)nn(-c3nc4ccccc4[nH]3)c2O)CC1

Result:
Toxic @ 10 nM
Toxic @ 1 μM

---

- System: HIV-1 NefNL4-3 (Human immunodeficiency virus type 1 group M subtype B, UniProt P03406, A33V/T15A/T51N/V11I)
- Protocol Notes: Surface plasmon resonance binding to recombinant full-length Nef (NL4-3)
- Condition Description: KD, M, Table 4; SPR fit 1:1 Langmuir, KD = koff/kon
For each entry below, report its pKd value.
Give bare numbers, as −log10 of the molar value.

{"columns": ["Compound", "pKd"],
 "data": [
  ["CN(C)C(=O)N1CCCC(Cc2c(C3CC3)nn(-c3nc4ccccc4[nH]3)c2O)C1 (stereo not drawn) [Compound I-782]", 5.03],
  ["Oc1c(CC2CCOCC2)c(-c2cccc(F)c2)nn1-c1nc2ccccc2[nH]1 [Compound I-184]", 5.45],
  ["Cc1nn(-c2nc3ccccc3[nH]2)c(O)c1Cc1ccc(Cl)cc1F [Compound I-156]", 8.07],
  ["Oc1c(CCc2ccc(F)cc2)c(C2CCN(CC3CCOCC3)CC2)nn1-c1nc2ccccc2[nH]1 [Compound I-806]", 5.00],
  ["Oc1c(CCc2ccc(Br)cc2)c(-c2ccc(C(F)(F)F)cn2)nn1-c1nc2ccccc2[nH]1 [Compound I-147]", 10.12]
]}

# batch: return pKd for each of the 3 compounds below
1. Oc1c(CCn2cc(Cl)cn2)c(-c2ccc(C(F)(F)F)cc2)nn1-c1nc2ccccc2[nH]1 [Compound I-143]
2. O=S(=O)(c1cccnc1)N1CCCC(c2nn(-c3nc4ccccc4[nH]3)c(O)c2CCc2ccc(F)cc2)C1 (stereo not drawn) [Compound I-758]
3. Oc1c(CC2CCN(CC(F)(F)F)CC2)c(-c2ccc(C(F)(F)F)cc2)nn1-c1nc2ccccc2[nH]1 [Compound I-1005]

Result:
1. 6.37
2. 7.17
3. 7.04

# batch: return pKd for each of the 7 compounds below
1. Oc1c(CC2CCOCC2)c(-c2ccccc2)nn1-c1nc2ccccc2[nH]1 [Compound I-183]
2. Oc1c(CC2CCOCC2)c(C2CC(F)(F)C2)nn1-c1nc2cccnc2[nH]1 [Compound I-316]
3. Oc1c(CCc2ccccn2)c(-c2ccc(C(F)(F)F)cn2)nn1-c1nc2ccccc2[nH]1 [Compound I-146]
4. COC(=O)N1CCC(CCc2c(-c3ccc(C(F)(F)F)cn3)nn(-c3nc4cc(Br)ccc4[nH]3)c2O)CC1 [Compound I-708]
5. CS(=O)(=O)N1CCC(CCc2c(-c3ccc(C(F)(F)F)cn3)nn(-c3nc4cc(Br)ccc4[nH]3)c2O)CC1 [Compound I-775]
6. CC(=O)N1CCC(c2nn(-c3nc4cc(Cl)ccc4[nH]3)c(O)c2CCn2nccn2)CC1 [Compound I-704]
7. CC(C)(C)OC(=O)N1CCN(Cc2nn(-c3nc4ccccc4[nH]3)c(O)c2CCc2ccc(F)cc2)CC1 [Compound I-211]

Result:
5.64
5.35
5.78
8.85
6.50
5.44
5.14

---

- System: HIV-1 NefNL4-3 (Human immunodeficiency virus type 1 group M subtype B, UniProt P03406, A33V/T15A/T51N/V11I)
- Protocol Notes: Surface plasmon resonance binding to recombinant full-length Nef (NL4-3)
- Condition Description: Nef NL4-3 Binding, SPR 2-state fitting KD, Table 1; 2-step induced-fit model
For each entry below, report its log10 Kd value.
Values reflect log10 of reported Kd (nM).

Below: 6 molecules and their reported log10 Kd.
{"columns": ["Molecule", "log10 Kd"],
 "data": [
  ["Oc1c(CCc2ccc(F)cc2)c(C2CCCO2)nn1-c1nc2ccccc2[nH]1 (stereo not shown)", 3.39],
  ["CS(=O)(=O)N1CCC(CCc2c(-c3ccc(C(F)(F)F)cn3)nn(-c3nc4ccccc4[nH]3)c2O)CC1", 3.64],
  ["Oc1c(CCc2ccc(F)cc2)c(-c2ccccc2)nn1-c1nc2cc(Cl)ccc2[nH]1", 2.80],
  ["O=C(NCC1CC1)c1ccc(-c2nn(-c3nc4ccccc4[nH]3)c(O)c2CCc2ccc(F)cc2)cc1", 2.87],
  ["Oc1c(CCc2ccncc2)c(-c2ccc(C(F)(F)F)cc2)nn1-c1nc2ccccc2[nH]1", -0.54],
  ["CS(=O)(=O)c1ccc(-c2nn(-c3nc4cc(Cl)ccc4[nH]3)c(O)c2CCC2CCOCC2)cc1", 3.44]
]}

The record that follows has no log10 Kd shown yet.
Ask: For "CC(C)(C)OC(=O)N1CCC(CCc2c(-c3cccc(S(C)(=O)=O)c3)nn(-c3nc4ccccc4[nH]3)c2O)CC1" , what is its reported log10 Kd?
Result: 3.66

---

- System: HIV-1 NefNL4-3 (Human immunodeficiency virus type 1 group M subtype B, UniProt P03406, A33V/T15A/T51N/V11I)
- Protocol Notes: Surface plasmon resonance binding to recombinant full-length Nef (NL4-3)
- Condition Description: Nef NL4-3 Binding, SPR 2-state fitting KD, Table 1; 2-step induced-fit model
Observed Property: Kd (nM)
Give bare numbers, in nM.

{"columns": ["Compound", "Measurement Units", "Measured Number"],
 "data": [
  ["CC(=O)N1CCC(c2nn(-c3nc4ccc(Cl)cc4[nH]3)c(O)c2CCc2ccc(F)cc2)CC1", "nM", 787],
  ["Oc1c(CC2CCCCO2)c(-c2ccc(C(F)(F)F)cc2)nn1-c1nc2ccccc2[nH]1 (stereo not shown)", "nM", 1860],
  ["Oc1c(CCC2CCNCC2)c(C2CC2)nn1-c1nc2cc(Cl)ccc2[nH]1", "nM", 0.00315]
]}

Ask: For "Cc1ccn(CCc2c(-c3ccc(C(F)(F)F)cc3)nn(-c3nc4ccc(Cl)cc4[nH]3)c2O)n1" , what is its reported Kd?
Result: 5820

---

- System: HIV-1 NefNL4-3 (Human immunodeficiency virus type 1 group M subtype B, UniProt P03406, A33V/T15A/T51N/V11I)
- Protocol Notes: Surface plasmon resonance binding to recombinant full-length Nef (NL4-3)
Observed Property: Kd (nM)
Give bare numbers, in nM.

{"columns": ["Molecule", "Observed Property", "Measurement Units", "Measured Number"],
 "data": [
  ["COc1cc(N2CCC(CCc3c(C4CC4)nn(-c4nc5cc(Cl)ccc5[nH]4)c3O)CC2)nc(OC)n1 [Compound I-902]", "Kd", "nM", 6.58],
  ["Nc1ccc(S(=O)(=O)N2CCC(c3nn(-c4nc5ccccc5[nH]4)c(O)c3CCc3ccc(F)cc3)CC2)cc1 [Compound I-749]", "Kd", "nM", 1.26],
  ["Oc1c(CCc2ccc(F)cc2)c(C2CCN(CC(F)(F)F)CC2)nn1-c1nc2ccccc2[nH]1 [Compound I-1003]", "Kd", "nM", 1810],
  ["Oc1c(CCc2ccc(Br)cc2)c(-c2ccc(C(F)(F)F)cn2)nn1-c1nc2ccccc2[nH]1 [Compound I-147]", "Kd", "nM", 0.0752]
]}

# batch: return Kd for each of the 3 molecules below
1. Cn1c(-n2nc(-c3ccc(S(C)(=O)=O)cc3)c(CCc3ccc(F)cc3)c2O)nc2ccccc21 [Compound I-403]
2. Oc1c(CCc2ccc(F)cc2)c(-c2ccc(F)cc2)nn1-c1nc2cc(Cl)ccc2[nH]1 [Compound I-172]
3. Oc1c(CCc2ccc(F)cc2)c(C2CCN(Cc3ccccn3)CC2)nn1-c1nc2ccccc2[nH]1 [Compound I-802]

Result:
1. 2400
2. 250
3. 447
